Values compiled from PubChem BioAssay (NCI).

# System: RXF 393 renal
# TEST: NCI tumour cell line growth inhibition, 48 h
EXPERIMENTAL READOUT: TGI

Asked: Recorded TGI for COc1nc(N)nc2c1n(C)c[n+]2C , please?
Given back: > 100 µM

Asked: What does the data say about its TGI? Entry: COC1CCC2C(=O)CCCC2O1 (stereo unspecified)
Given back: > 100 µM

Asked: Give the measured TGI of CC(C)(C)C(=O)Nc1ccccc1Br .
Given back: > 100 µM

Asked: So what's the measured TGI for this one? CC(C)SC1SCC2C(=O)N(C)C3(CC3C)C(=O)OCC(NC(=O)c3nc4ccccc4cc3O)C(=O)NC(C)C(=O)N(C)C1C(=O)N(C)C1(CC1C)C(=O)OCC(NC(=O)c1nc3ccccc3cc1O)C(=O)NC(C)C(=O)N2C (stereo unspecified)
Given back: < 0.0001 µM

Asked: Report TGI for COc1ccc2c(c1OC)C(Br)CCC(Br)(Br)C2=O (stereo unspecified) please.
Given back: 15.1 µM

Asked: Could you tell me which TGI is on file for C[C@@H]1C(=O)O[C@@H]2C[C@@]1(C)[C@@H]1C(=O)C3(O)OC14C2(C)OC(=O)[C@@]4(O)CCC1C3C(O)C=C2CC=CC(=O)[C@@]21C (stereo partly specified) ?
Given back: 32.8 µM

Asked: What measured TGI goes with CCOC(=O)Oc1c(OC)cc(C(=O)c2ccc(OC)c(OC(=O)CCl)c2OC)cc1OC ?
Given back: 8.08 µM

Asked: Can you share its TGI? I mean this compound: c1ccc2nc3c(nc2c1)sc1nc2ccccc2n13
Given back: > 100 µM

Asked: Requested read-out: TGI. Entry: COC(=O)CC[N+]1([O-])CC1
Given back: > 100 µM

Asked: Could you share which TGI value was measured for COC(=O)/C=C/COCC1C2CCC(=O)C21 (stereo unspecified) ?
Given back: > 100 µM

Asked: GET /values?readout=TGI&item= CC1(C)C2CC1C(/C=N\OCC(=O)O)=CC2=O (stereo unspecified)
Given back: > 100 µM

----------
# Test system: KM12 colon
# TEST: NCI tumour cell line growth inhibition, 48 h
EXPERIMENTAL READOUT: TGI

Asked: Report TGI for COc1c(O)cc2oc3cc(O)c(CC=C(C)C)c(O)c3c(=O)c2c1C/C=C(\C)CCC=C(C)C please.
Given back: 9.91 µM

Asked: Query: TGI; subject: CC(=O)CC(=O)CCCC(=O)Nc1ccc(Cl)cc1Cl
Given back: > 100 µM

Asked: Please report the recorded TGI for Cc1ccc([N+](=O)[O-])cc1S(=O)(=O)Nc1ccc(C2=NOC(c3ccccc3)C2)cc1 (stereo not given) .
Given back: 18.5 µM

Asked: Reported TGI, molecule C[C@@H](Oc1cc(-c2cnn(C3CCNCC3)c2)cnc1N)c1c(Cl)ccc(F)c1Cl : ____
Given back: > 10 µM

Asked: # query: TGI of entry CCOC(=O)c1csc(NC(=O)CN2CCCCC2)n1
Given back: > 100 µM

Asked: Can you share its TGI? I mean this molecule: CCOC(=O)NC(Nc1cccc(F)c1)(C(F)(F)F)C(F)(F)F
Given back: > 100 µM

Asked: Form field: reported TGI of O=c1oc2ccccc2cc1-c1nc2ccccc2c(=O)[nH]1
Given back: > 100 µM

Asked: Requested read-out: TGI. Entry: c1ccc2c(c1)Sc1ccccc1N2CCCN1c2ccccc2Sc2ccccc21
Given back: > 100 µM

Asked: So what does the record say about TGI for COc1cc(/C=C2\CC(C)CC3C2=NN(c2ccccc2)C3c2cc(OC)c(OC)c(OC)c2)cc(OC)c1OC (stereo not given) ?
Given back: 40.8 µM

Asked: What TGI value was documented for this molecule, O=C(O)C1CCCN1Cc1c[nH]c2ccccc12 (stereo not given) ?
Given back: > 100 µM

----------
# Test system: HCC-2998 colon
# TEST: NCI tumour cell line growth inhibition, 48 h
I'd appreciate it if you could supply TGI values for the items below.
The reply should be a number in µM, with the unit left off.

Asked: Item CCCCCCCCCCCCOCCCCCCCCC/C=C/c1ccc2c(c1)OCCOCCOCCOCCO2 has what recorded TGI?
Given back: 44.7

Asked: # get_value(readout='TGI', item= C=CCN1C(=O)/C(=C/c2ccccc2)N=C1SC/C=C/C )
Given back: 76.6

Asked: Consider the compound C=C1C(=O)OC2C1C(OC(=O)/C(C)=C/C)CC(O)(CCl)C1C(OC(C)=O)C=C(C)C21O (stereo not given) and give its measured TGI.
Given back: 31.9

Asked: Need TGI, item COC(=O)c1ccc(-c2nc3cc(F)c(F)cc3nc2C#N)cc1
Given back: 16.1

----------
# Tested on: A498 renal
# TEST: NCI tumour cell line growth inhibition, 48 h
EXPERIMENTAL READOUT: TGI

Asked: # get_value(readout='TGI', item= CN(OC(=O)CC(=O)c1ccccc1)C(=O)Cc1ccccc1 )
Given back: > 100 µM

Asked: Look up TGI for this compound: C=CCN1C(=O)/C(=C/c2ccccc2)N=C1SC/C=C/C
Given back: > 100 µM

Asked: # TGI lookup, item C=C1C(=O)O[C@H]2[C@H]1CC/C(COC(=O)/C=C/c1cccnc1)=C\CC[C@@]1(C)O[C@@H]21
Given back: 16.3 µM

Asked: // TGI lookup, key: NC(=O)c1csc(C2O[C@@H](COP(=O)(O)OP(=O)(O)OC[C@H]3OC(n4cnc5c(N)ncnc54)[C@H](O)[C@@H]3O)[C@H](O)[C@@H]2O)n1 (stereo not given in full)
Given back: > 100 µM

Asked: Would you kindly share the measured TGI for Cc1ccc(C)c(NC(=O)CC2C(=O)Nc3ccccc3S2(=O)=O)c1 (stereo not given) ?
Given back: > 100 µM

Asked: What value of TGI has been recorded for this entry: CNc1nc2c(C)ccc3nc(N(C)C)nc-3c2n1C
Given back: > 10 µM

Asked: Name the reported TGI value associated with the compound CCOc1cc(NC(C)=O)ccc1C(=O)NN1C(=O)C(Cl)C1c1ccc(O)c(OC)c1 (stereo not given)
Given back: 28.4 µM

Asked: For the compound O=[N+]([O-])/C(C(Cl)=C(Cl)Cl)=C(\Nc1cccc2cccnc12)Sc1ccccc1 , what TGI is on record?
Given back: 69.4 µM

Asked: May I ask what TGI has been recorded for COCC1N=C(c2ccc(OC)c(OCc3ccccc3)c2OC)O[C@H]1c1ccccc1 (stereo not given in full) ?
Given back: 79.7 µM

Asked: Given the compound c1ccc2nc3c(nc2c1)sc1nc2ccccc2n13 , what is its reported TGI?
Given back: > 100 µM

Asked: // returns reported TGI for input CCCCC1=C(C(=O)N2CCOCC2)C2(OCCO2)C1Cl (stereo not given)
Given back: > 100 µM

Asked: Need TGI of COc1ccc(-c2cc(-c3ccccc3)c3c(n2)-c2ccccc2NC(=O)C3)cc1 , thanks.
Given back: > 100 µM

Asked: Need TGI of Cc1cc2c(c(C=Nc3ccc(N(C)C)cc3)c1)OC1(C=C2)Oc2ccccc2C(=O)N1C (stereo not given) , thanks.
Given back: 42.1 µM

Asked: For Cc1ccc(C)c(-n2c(-c3ccc(Br)cc3)csc2=NC(=O)c2ccccc2F)c1 , what is its reported TGI?
Given back: > 100 µM

Asked: // query TGI value for entry COc1ccc(-c2c(C#N)c(N)n(C3OCC(O)C(O)C3O)c(=S)c2C#N)cc1 (stereo not given)
Given back: > 100 µM

Asked: Could you tell me which TGI is on file for CC(C)/C(Cl)=N/OC(NC(=O)Nc1ccc(Cl)c(Cl)c1)(C(F)(F)F)C(F)(F)F ?
Given back: 34.7 µM

Asked: Looking for the measured TGI of CC(C)C(=O)CC(Sc1ccc(N)cc1)c1ccccc1 (stereo not given) , can you help?
Given back: 89.1 µM

Asked: Please give the measured TGI for this compound: CS(=O)(=O)c1ccc(Oc2nccc(-c3c(-c4ccc(F)cc4)ncn3C3CCNCC3)n2)cc1
Given back: > 25 µM

Asked: Name the recorded TGI for Cc1cccc(/C=N/NC(=S)NC2CCCCC2)n1 .
Given back: > 71.4 µM

Asked: Can you look up the measured TGI of COc1ccc(/C=C/C(=O)c2cccc(C(=O)/C=C/c3ccc(OC)c(OC)c3)n2)cc1OC for me?
Given back: > 100 µM

----------
# Tested on: HOP-92 NSCLC
# TEST: NCI tumour cell line growth inhibition, 48 h
EXPERIMENTAL READOUT: TGI (µM)
Give a bare numeral; the unit µM is implied.

Asked: What does the data say about its TGI? Entry: Cc1ccc(C2=[N+]([O-])c3ccccc3C2=O)cc1
Given back: 39.2

Asked: Entry CN(C)CCCNC(=O)c1cc(NC(=O)c2cc(NC(=O)CCCN3c4ccccc4C=Cc4ccccc43)cn2C)cn1C : reported TGI = ?
Given back: 78.7

Asked: Data request, read-out TGI, for OCc1ccc(N(Cc2ccc(F)cc2)C2CCC2)cc1Cl
Given back: 6.69

Asked: Param item = Nc1c(O)c2c(c(O)c1Cl)C(=O)C=CC2=O ; retrieve measured TGI.
Given back: 31.3

Asked: What value of TGI has been recorded for this entry: CC(C)/C(Cl)=N/OC(NC(=O)Nc1ccc(Cl)c(Cl)c1)(C(F)(F)F)C(F)(F)F
Given back: 29.7

Asked: Which TGI reading was recorded for the molecule CC1=CC(=C(c2ccc(N)c(C)c2)c2ccc(N)c(C)c2)C=CC1=N ?
Given back: 14.2

Asked: Which TGI value is on record for Cc1ccc2c(/C=C/C(=O)c3cc(CN4CCOCC4)c(O)c4nc(C)ccc34)cc(CN3CCOCC3)c(O)c2n1 ?
Given back: 9.78

Asked: Dear colleague, I am looking for the recorded TGI of the following molecule: CC1=C2C(=CC(C)(CO)C2O)C(=O)C(C)(O)C12CC2 (stereo unspecified)
Given back: 0.0144

Asked: Which measured TGI value corresponds to C=CCN1C(=O)/C(=C/c2ccccc2)N=C1SC/C=C/C ?
Given back: 55.5

Asked: Entry under review: O=C(Nc1ncc([N+](=O)[O-])s1)c1cccc([N+](=O)[O-])c1 . Reported TGI?
Given back: 6.86
